Tested on: EKP-induced epileptiform discharges in zebrafish larvae
assayComment: Zebrafish EKP seizure model, electrophysiology (non-invasive LFP recordings, PSD analysis)
Format: in vivo, zebrafish (Danio rerio)
conditions: 2 μM, 22 h incubation, 7 dpf larvae; mean, normalized PSD 20-90 Hz
Here, each record is paired with measured efficacy against EKP-induced epileptiform discharges 2 μM data.
readoutName: efficacy against EKP-induced epileptiform discharges 2 μM (%)

Nc1ncccc1C(=O)N1CCN(c2cccc(Cl)c2)CC1 ... 61
CC(C)[Si](C#CC(=O)c1cccnc1N)(C(C)C)C(C)C ... 67
CC(C)(C)c1ccc(C#CC(=O)c2cccnc2N)cc1 ... 45
CC(C)(C)c1ccc(C#CC(=O)c2ccccc2)cc1 ... 38
CC(C)(C)c1ccc(C#CCc2ccccc2)cc1 ... 38

The reported numbers originate from patent US20250186408A1.
